Ref: patent US20240254138A1

Measured target: CDK7/cyclinH/MAT1 trimeric complex (Homo sapiens)
Sequence (P50613 whole entry): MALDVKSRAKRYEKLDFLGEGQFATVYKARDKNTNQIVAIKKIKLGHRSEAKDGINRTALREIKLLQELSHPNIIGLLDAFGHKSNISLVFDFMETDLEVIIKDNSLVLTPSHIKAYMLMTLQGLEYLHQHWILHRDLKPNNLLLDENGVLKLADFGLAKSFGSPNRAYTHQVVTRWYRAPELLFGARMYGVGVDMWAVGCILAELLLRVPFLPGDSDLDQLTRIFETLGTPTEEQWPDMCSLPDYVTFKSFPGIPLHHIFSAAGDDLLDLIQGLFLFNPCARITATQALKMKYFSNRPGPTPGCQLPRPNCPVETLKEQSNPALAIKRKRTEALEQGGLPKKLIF
Sequence (P51946 whole entry partner): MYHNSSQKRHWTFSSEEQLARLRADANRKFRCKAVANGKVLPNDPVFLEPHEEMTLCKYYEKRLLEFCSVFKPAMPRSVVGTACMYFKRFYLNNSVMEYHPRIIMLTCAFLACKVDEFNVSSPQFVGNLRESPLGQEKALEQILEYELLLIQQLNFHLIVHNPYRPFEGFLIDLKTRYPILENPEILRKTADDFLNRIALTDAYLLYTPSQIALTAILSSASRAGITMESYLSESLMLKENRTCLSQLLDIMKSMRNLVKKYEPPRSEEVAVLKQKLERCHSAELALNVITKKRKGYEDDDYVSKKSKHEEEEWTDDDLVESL
Sequence (P51948 whole entry partner): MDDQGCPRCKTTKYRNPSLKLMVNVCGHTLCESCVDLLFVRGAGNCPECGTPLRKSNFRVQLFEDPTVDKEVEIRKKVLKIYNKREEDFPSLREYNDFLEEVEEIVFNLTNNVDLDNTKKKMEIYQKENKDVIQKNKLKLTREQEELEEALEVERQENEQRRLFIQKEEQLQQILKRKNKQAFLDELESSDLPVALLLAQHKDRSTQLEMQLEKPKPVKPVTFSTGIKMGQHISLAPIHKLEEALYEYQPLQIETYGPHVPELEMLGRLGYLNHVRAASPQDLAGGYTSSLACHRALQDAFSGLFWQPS
Test: In vitro CDK7 assay, potency of irreversible covalent inhibitors (kinact/KI), coupled PK/LDH ADP readout at 340 nm
Condition details: read-out: CDK7 (20 nM enz.) (kinact/KI, M^−1*s^−1), 20 nM enzyme
Result type: kinact/KI (M⁻¹ s⁻¹)

Molecule	Result type	Value observed
C=CC(=O)N1CC(N2CCC(c3cc(C)c4c(c3)Nc3nccc(N5CCS(=O)(=O)CC5)c3CO4)CC2)C1	kinact/KI	973
C=CC(=O)N1CC(N2CC(c3ccc4c(c3)Nc3nccc(C5CCOCC5)c3CO4)C2)C1	kinact/KI	1660
C=CC(=O)N1CC[C@H](N2CC(c3cc4c(c(C(F)(F)F)n3)O[C@@H](C)c3c(N5CCOCC5)ccnc3N4)C2)C1 (single isomer, unassigned)	kinact/KI	12.7
CC#CC(=O)N1CCC(N2CC(c3cc4c(c(CCC)n3)OCc3c(N5CCOCC5)ccnc3N4)C2)CC1	kinact/KI	791
C=CC(=O)N1CCC2(CC1)CC(Cc1ccc3c(c1)Nc1nccc(C4CCOCC4)c1CO3)C2	kinact/KI	32
C=CC(=O)N1CC(N2CCC(c3ccc4c(c3)Nc3nccc(N5CCOC6(CC6)C5)c3CO4)CC2)C1	kinact/KI	1010

1. C=CC(=O)N1CC[C@H](N2CC(c3cc(C)c4c(c3)Nc3nccc(-c5cnn(C)c5)c3CO4)C2)C1 (single isomer, unassigned) [Compound 361]
2. CC#CC(=O)N1CCC(N2CC(c3cc4c(c(C(F)(F)F)n3)OCc3c(N5CCOCC5)ccnc3N4)C2)CC1
Input: Please indicate which item has the smaller measured kinact/KI: 1 versus 2 // caller expects the label of the chosen entry
Output: 2

---

Result type: melting point (°C)

Compound	melting point (°C)
C=CC(=O)N1CC(N2CCC(c3cc4c(c(C)n3)O[C@H](C)c3c(N5CCOCC5)ccnc3N4)CC2)C1 (single isomer, unassigned)	225
CC#CC(=O)N1CC(N2CCC(c3cc4c(c(-c5ncc[nH]5)n3)OCc3c(N5CCOCC5)ccnc3N4)CC2)C1	229.2
C=CC(=O)N1CC(N2CCC(c3cc4c(c(C5CC5)n3)OCc3c(N5CCOCC5)ccnc3N4)CC2)C1	189.9

A. C=CC(=O)N1CC(N2CCC(c3cc4c(c(C)n3)O[C@@H](C)c3c(N5CCOCC5)ccnc3N4)CC2)C1 (single isomer, unassigned)
B. C=CC(=O)N1CC[C@H](N2CCC(c3ccc4c(c3)Nc3ncc(F)c(N5CCOCC5)c3CO4)CC2)C1 (single isomer, unassigned)
Input: Lab note: check whether A or B shows the higher recorded melting point. Respond using the label that marks the chosen record.
Output: A
(A: 288.5 °C, B: 138 °C)

---

Measured target: CDK7/cyclinH/MAT1 trimeric complex (Homo sapiens)
Test: In vitro CDK7 assay, potency of irreversible covalent inhibitors (kinact/KI), coupled PK/LDH ADP readout at 340 nm
Condition details: 20 nM enzyme
Result type: CDK7 (20 nM enz.) (kinact/KI, M^−1*s^−1) (M⁻¹ s⁻¹)

Compound	Readout unit	Value observed
C=CC(=O)N1CCC(N2CC(c3ccc4c(c3)Nc3nccc(C5CCOCC5)c3CO4)C2)CC1 [Compound 36]	M⁻¹ s⁻¹	535
CC#CC(=O)N1CC(N2CCC(c3cc4c(c(C#N)n3)O[C@@H](C)c3c(N5CCOCC5)ccnc3N4)CC2)C1 (single isomer, unassigned) [Compound 542]	M⁻¹ s⁻¹	6751
C=CC(=O)N1CC(N2CC[C@H](c3ccc4c(c3)Nc3nccc(N5CCOCC5)c3CO4)[C@@H](F)C2)C1 (mixture of isomers) [Compound 226]	M⁻¹ s⁻¹	100.867

A. CC#CC(=O)N1CC(N2CCC(c3cc4c(c(C)n3)O[C@H](C)c3c(N5CCOCC5)ccnc3N4)CC2)C1 (single isomer, unassigned) [Compound 510]
B. C=CC(=O)N1CCC(N2CC(c3cc(C)c4c(c3)Nc3nccc(-c5cnn(C)c5)c3CO4)C2)CC1 [Compound 100]
Input: Param metric = CDK7 (20 nM enz.) (kinact/KI, M^−1*s^−1); output whichever of A , B has the minimum value. Write the label of whichever entry you select.
Output: A

1. C=CC(=O)N1CCC(N2CC(c3cc4c(c(C)n3)OCc3c(-c5cnn(C)c5)ccnc3N4)C2)CC1 [Compound 316]
2. C=CC(=O)N1CCC(N2CC(c3cc4c(c(C(F)(F)F)n3)OCc3c(N5CCOCC5)ccnc3N4)C2)CC1 [Compound 359]
3. C=CC(=O)N1CC(N2CCC(c3ccc4c(c3)Nc3nccc(-c5cnn(C)c5)c3C(C)(C)O4)CC2)C1 [Compound 260]
Input: Form: Sort by [CDK7 (20 nM enz.) (kinact/KI, M^−1*s^−1)] Order [ ascending ] Respond with the label ranking, as requested.
Output: 1, 2, 3
